- MEASURED_TARGET: T1, PUF4 RNA-binding domain (Saccharomyces cerevisiae, UniProt P25339 537-888)
- T1 sequence: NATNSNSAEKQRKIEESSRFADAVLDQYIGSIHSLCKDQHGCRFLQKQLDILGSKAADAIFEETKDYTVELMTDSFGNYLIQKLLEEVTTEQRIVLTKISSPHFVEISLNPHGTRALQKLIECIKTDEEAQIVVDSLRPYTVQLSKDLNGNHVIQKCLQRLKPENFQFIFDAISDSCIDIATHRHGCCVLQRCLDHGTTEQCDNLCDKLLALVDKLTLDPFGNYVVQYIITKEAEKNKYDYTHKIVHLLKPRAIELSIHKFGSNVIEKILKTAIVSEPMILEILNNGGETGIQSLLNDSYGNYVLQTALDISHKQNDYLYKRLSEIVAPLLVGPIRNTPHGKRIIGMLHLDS
- TEST_SUMMARY: Mg; RNA-MaP; 20 mM Na-HEPES pH 7.4, 30 mM KOAc, 0.75 mM MgCl2, 0.1% Tween-20, 5% glycerol, 0.1 mg/mL BSA, 2 mM DTT; 25 C; 0.0125-409.6 nM protein
- RECORDED_CONDITIONS: tags: N-His6-TEV cleaved; C-SNAP kept, Cy3B-labelled; label: tethered on chip by stalled RNA polymerase
Decide using Kd alone. Strictly below 200 nM: 1.0. Equal to or above 200 nM: 0.0.

These recorded examples may help you get a feel for the data.
Identify whether the binder UCUCUUUGUAGCCUCAUCUCUU (ssRNA) [Ic_S1_P5E.1_K5.1_C5.1_H5.1_A5.1_[T5G]_[T6C]_[A7C]_F5.1_[T9C]_T5.1] records Kd below 200 nM. 0.0

Quick check: does Ic_S4_P3E.1_K3.1_C3.1_H3.1_A3.1_[A6T]_F3.1_[T7A]_[A8C]_T3.1 (ssRNA) RNA: UUUGACAACUGAUCGUUCUUUCUUGUAUUACUUCUUUCUCGAUCAGUUGUCUUU have Kd under 200 nM? 1.0

Does UCUCUUUGUAAUAUAAUCUCUU (ssRNA) [Ib_S1_P5E.1_K5.1_C5.1_H5.1_A5.1_[T5A]_F5.1_[T9A]_T5.1] have Kd strictly under 200 nM? 1.0

Bench note: check whether Ic_S2_P4E.1_K4.1_C4.1_H4.1_A4.1_[A6C]_[T7C]_F4.1_[T8C]_[A9T]_T4.1 (ssRNA) RNA: UUUGAUUAAUAUGAUAUCGUUCUUUCUUGUAUCCCUUUCUUUCUCGAUAUCAUAUUAAUCUUU shows Kd below 200 nM 1.0

Quick check: does UCUCUUUGCAUGUUAUCUCUU (ssRNA) [Ib_S1_P4E.1_K4.1_C4.1_H4.1_[T3C]_A4.1_[A6G]_F4.1_T4.1] have Kd under 200 nM? 0.0

Would you kindly look at the next entry?
Input Ie_S4_P4E.1_K4.1_C4.1_H4.1_[+3TTT]_A4.1_F4.1_T4.1 (ssRNA) RNA: UUUGACAACUGAUCGUUCUUUCUUGUUUUAUAUUAUUCUUUCUCGAUCAGUUGUCUUU ; condition: Kd strictly below 200 nM. Does it hold? 1.0
